Molecular target: HLA-A02.01 (Homo sapiens, UniProt P04439, D140Y/D185E/D98H/E176V/E277Q/G131W/G231S/I119V/I121R/I166T/I218V/L300P/L318F/N151K/N90K/P208A/P217A/Q86G/Q94H/R138H/R169H/T345S)
Assay: Class I MHC peptide binding affinity (displacement of radiolabeled reference peptide)
Details: allele A02.01; read-out: Observed Affinity (IC50; (nM))
Where a SMILES comes first, the peptide text is derived from it.
RECORDED_ENDPOINT: IC50 (nM)
Just the number in nM, nothing appended.

CC[C@H](C)[C@H](NC(=O)[C@H](Cc1ccccc1)NC(=O)[C@H](CCCNC(=N)N)NC(=O)[C@@H]1CCCN1C(=O)[C@H](CC(C)C)NC(=O)[C@@H](N)CO)C(=O)N[C@@H](CC(C)C)C(=O)N[C@@H](CCSC)C(=O)N[C@@H](CCC(=O)O)C(=O)N[C@@H](CC(C)C)C(=O)O
26
CC[C@H](C)[C@H](N)C(=O)N[C@@H](CC(C)C)C(=O)N[C@H](C(=O)N[C@@H](CCCNC(=N)N)C(=O)N[C@@H](CCCCN)C(=O)N[C@@H](C)C(=O)N[C@@H](CCSC)C(=O)N[C@H](C(=O)N[C@H](C(=O)O)C(C)C)[C@@H](C)O)[C@@H](C)CC (H-ILIRKAMTV-OH; N-terminus and C-terminus assumed)
19.5

q: Tell me the measured IC50 of `CC[C@H](C)[C@H](NC(=O)[C@H](Cc1ccccc1)NC(=O)[C@H](CCCNC(=N)N)NC(=O)[C@@H]1CCCN1C(=O)[C@H](CC(C)C)NC(=O)[C@H](CO)NC(=O)[C@H](CCC(N)=O)NC(=O)[C@@H](N)CC(C)C)C(=O)N[C@@H](CC(C)C)C(=O)N[C@@H](CCSC)C(=O)O` , please.
a: 413
